Test: Quantitative highthroughput screen to assess conditional lethalithy of SEM cells grown in Human Plasma-Like Medium with dialyzed fetal bovine serum (HPLM+ds) (AID 1963882); note: nearly all actives have a fitted effect of over 35% in size
Details: SEM B-ALL cells in HPLM+ds, CellTiter-Glo viability, 48 h; series mostly up to 45.8 µM
Results filed as inconclusive are left out. Active and inactive are the calls of the source. Calls come from the whole dose curve; as a rule, active = well fitted cell-killing curve with a large enough effect; inconclusive = small, poorly fitted or top-dose-only effect, or effect the other way; inactive = no such curve, though single readings can be large or run the other way.
Outcome codes: active, inactive

> print(dat)
                                   molecule  class.name
1  O=C(C[C@@H]1CC=CCCC(=O)O[C@H](c2ccccc2)CNC1=O)NCc1ccc(Cl)cc1    inactive
2  CCC(=O)N[C@H]1CC[C@H](C(=O)N(C)c2ccc(-c3nc4ccccc4o3)cc2)C1    inactive
3  O=c1c(O)c(-c2ccc(O)c(O)c2)oc2cc(O)cc(O)c12    inactive
4               c1coc(CNc2ncnc3nc[nH]c23)c1    inactive
5  NC(=O)c1noc([C@H](CCCC2CCCCC2)CC(=O)NO)n1      active

---

Experiment: Quantitative highthroughput screen to assess conditional lethalithy of P12 Ichikawa cells grown in RPMI1640 with untreated serum (RPMI+s) (AID 1963881); note: nearly all actives have a fitted effect of over 35% in size; note: potency is the fitted concentration of half-maximal effect
Details: ATP luminescence, 48 h; viability; series mostly up to 45.8 µM
Results filed as inconclusive are left out. Calls of active or inactive are those of the source. Calls follow the shape of the dose curve; as a rule, active = well fitted cell-killing curve with a large enough effect; inconclusive = small, poorly fitted or top-dose-only effect; inactive = flat fitted curve, though single readings scatter.

Compound	Potency
CO[C@H]1C=CO[C@@]2(C)Oc3c(C)c(O)c4c(O)c(c(C=NN5CCN(C)CC5)c(O)c4c3C2=O)NC(=O)C(C)=CC=C[C@H](C)[C@H](O)[C@@H](C)[C@@H](O)[C@@H](C)[C@H](OC(C)=O)[C@H]1C	3.78 µM (active)
Cn1cnc2c(F)c(Nc3ccc(Br)cc3F)c(C(=O)NOCCO)cc21	inactive
CNC(=O)c1ccc(Nc2cc(Nc3ccccc3S(=O)(=O)C(C)C)c3cc[nH]c3n2)nc1	1.87 µM (active)
O[C@@H](COc1cccc2ncccc12)CN1CCN(C2c3ccccc3[C@@H]3[C@H](c4ccccc42)C3(F)F)CC1 (some centres undefined)	inactive
COc1ccc(CCN2CCN(CCCc3ccccc3)CC2)cc1OC	inactive
COC(=O)[C@H](c1ccccc1Cl)N1CCc2sccc2C1	9.35 µM (active)
Cc1ccc([N+](=O)[O-])cc1S(=O)(=O)N(C)N=Cc1cnc2ccc(Br)cn12	0.132 µM (active)
CCN(CC)C(=S)SSC(=S)N(CC)CC	2.96 µM (active)
C[C@@H]1COCCN1c1cc(C2(S(C)(=N)=O)CC2)nc(-c2ccnc3[nH]ccc23)n1 (some centres undefined)	4.67 µM (active)
Cn1cc(-c2ccc3ncc(Cc4ccc5ncccc5c4)n3n2)cn1	inactive
CCOc1cc2ncc(C#N)c(Nc3ccc(F)c(Cl)c3)c2cc1NC(=O)C=CCN(C)C	5.26 µM (active)
Cc1nccn1CC1CCc2c(c3ccccc3n2C)C1=O (centres undefined)	inactive
Cn1cnc2c(F)c(Nc3ccc(Br)cc3Cl)c(C(=O)NOCCO)cc21	0.662 µM (active)
CCN1CCN(C(=O)N[C@H](C(=O)N[C@@H]2C(=O)N3C(C(=O)O)=C(CSc4nnnn4C)CS[C@@H]23)c2ccc(O)cc2)C(=O)C1=O	inactive
O=c1[nH]c(=O)n([C@H]2C[C@@H](O)[C@@H](CO)O2)cc1C(F)(F)F	3.72 µM (active)
Cc1cnc(Nc2ccc(OCCN3CCCC3)cc2)nc1Nc1cccc(S(=O)(=O)NC(C)(C)C)c1	inactive
COc1ccc(C(C)=O)c(O)c1	8.33 µM (active)
CCc1ccc(C(=O)Nc2cc(CN3CCN(C)CC3)cc(C(F)(F)F)c2)cc1C#Cc1cnc2ccnn2c1	inactive
C=C1C[C@@]2(O)O[C@@]3(C[C@H]2C(C)C)[C@H](C)CC[C@H]13	inactive
CC(C)(N)C(=O)N[C@H](COCc1ccccc1)C(=O)N1CCC2(CC1)CN(S(C)(=O)=O)c1ccccc12	26.4 µM (active)
C[C@]12CC[C@H](O)CC1=CC[C@@H]1[C@H]2CC[C@]2(C)C(c3cccnc3)=CC[C@H]12	inactive
C[C@H](NC(=O)c1sccc1OCc1ccc(Cl)cc1)c1ccccc1	inactive
COc1cc2c(Oc3ccc(NC(=O)C4(C(=O)Nc5ccc(F)cc5)CC4)cc3F)ccnc2cc1OCCCN1CCOCC1	2.35 µM (active)
N[C@H]1CN(c2c(F)cc3c(=O)c(C(=O)O)cn(C4C[C@@H]4F)c3c2Cl)CC12CC2 (some centres undefined)	inactive
NC(=O)Nc1cc(-c2ccc(CN3CCOCC3)cc2)sc1C(N)=O	0.118 µM (active)
O=C(O)c1ccc(-c2cc3cccnc3c(-c3ccc4nonc4c3)n2)cc1	inactive
CN1C(=O)C(Cc2c[nH]c3ccccc23)NC1=S (centres undefined)	inactive
Cc1cnc(NC(=O)C2=C(O)c3ccccc3S(=O)(=O)N2C)s1	inactive
Cc1ccc(C(=O)N(CCCN)[C@@H](c2nc3cc(Cl)ccc3c(=O)n2Cc2ccccc2)C(C)C)cc1	0.0013 µM (active)
NC(=O)NN=Cc1ccc([N+](=O)[O-])o1	inactive
C[C@@H]1[C@H](C)CC[C@]2(C(=O)O)CC[C@]3(C)C(=CC[C@@H]4[C@@]5(C)C[C@@H](O)[C@H](O)[C@@](C)(CO)[C@H]5CC[C@]43C)[C@@H]12	inactive
COc1cc(C=CC(=O)CC(=O)C=Cc2ccc(O)c(OC)c2)ccc1O	34 µM (active)
NCCc1cnc[nH]1	inactive
CCCn1c(=O)c2[nH]c(-c3cnn(Cc4cccc(C(F)(F)F)c4)c3)nc2n(CC)c1=O	0.418 µM (active)
Cc1ccc(C2=Nc3ccc(Cl)cc3OC2)cc1	20.9 µM (active)
COc1ccccc1-c1cccc(-c2c(O)c3cc(C#N)c(Cl)cc3[nH]c2=O)c1	10.8 µM (active)
CC(C)OC(=O)C(C)(C)Oc1ccc(C(=O)c2ccc(Cl)cc2)cc1	inactive
COc1cc(NS(=O)(=O)c2ccc(N)cc2)nc(OC)n1	inactive
COc1nccc(-c2c(-c3ccc(F)cc3)ncn2C2CCNCC2)n1	inactive

---

Test: Viability qHTS for spleen associated tyrosine kinase inhibitor (SYKi) drug resistant MV4-11 cells (AID 1963824); note: nearly all actives have a fitted effect of over 35% in size; note: potency is the fitted concentration of half-maximal effect
Conditions: SYKi-resistant MV4-11 viability, CellTiter-Glo, 72 h; series mostly up to 45 µM
Inconclusive results are not listed. Activity calls are given as the source filed them. Calls follow the shape of the dose curve; as a rule, active = well fitted cell-killing curve with a large enough effect; inconclusive = small, poorly fitted or top-dose-only effect, or effect the other way; inactive = no such curve, though single readings can be large or run the other way.

Compound	Potency
Cc1nc(CN(C)c2ncnc3ccc(-c4ccc5c(c4)OCO5)cc23)cs1	5.8 µM (active)
CCN(CC)CCNC(C(=O)OCCC(C)C)c1ccccc1 (stereo not given)	inactive
Cc1[nH]nc2ncc(C(=O)N3CCC[C@H]3c3ccc(Cl)cc3)cc12	2.95 µM (active)
Cc1cc2c(cc1CC(=O)c1sccc1S(=O)(=O)Nc1onc(C)c1Cl)OCO2	inactive
O=C1C(Cl)=C(NCCN2CCOCC2)C(=O)c2ncccc21	2.09 µM (active)
CN(CCCN1c2ccccc2CCc2ccccc21)CC(=O)c1ccc(Cl)cc1	13.3 µM (active)
C[C@@H]1CC[C@]2(C(=O)OC3OC(CO)C(O)C(O)C3O)CC[C@]3(C)C(=CCC4[C@@]5(C)CC[C@H](O)[C@](C)(C(=O)O)C5CC[C@]43C)C2[C@]1(C)O (stereo not given in full)	inactive
CCOc1ccc(-n2c(C(C)N(Cc3cccnc3)C(=O)Cc3ccc(F)c(C(F)(F)F)c3)nc3ncccc3c2=O)cc1 (stereo not given)	16.4 µM (active)
C=C[C@]1(C)C=C2CCC3C(C)(CCC[C@@]3(C)C(=O)O)C2CC1 (stereo not given in full)	inactive
CCOC(=O)[C@@]1(CCCCCCOc2ccc(Cl)cc2)CO1	20.9 µM (active)
CC(C)(C)c1ccc(O)c(O)c1	6.11 µM (active)
O=C1[C@H](O[C@@H]2O[C@H](CO)[C@@H](O)[C@H](O)[C@H]2O)Oc2ccccc2N1O	inactive
CC1=CC2/C=C(\C)CCC3OC(C)(C)OC3CCC(=O)C23C(=O)NC(CC(C)C)C3C1C (stereo not given)	7.96 µM (active)
CC[N+](CC)(CC)CCOC(=O)C(C1CCCC1)C1CCCC1	11.9 µM (active)
CCCCOc1ccc(C(=O)CCN2CCCCC2)cc1	16.8 µM (active)
CCc1cc(/C(C)=N/OCc2ccc(C3CCCCC3)c(C(F)(F)F)c2)ccc1CN1CC(C(=O)O)C1	14.8 µM (active)
CN[C@H]1CCN(C(=O)c2ccc(Nc3ncc(F)c(-c4cnc(C)n4C(C)C)n3)cc2)C1	0.0517 µM (active)
CC(=O)c1c(OCCN2CCCCC2)c(OCCC(C)c2ccc(F)cc2)c2oc(C)nc2c1C (stereo not given)	7.31 µM (active)
Oc1ccc(-c2ccc(-c3cc(Nc4cccc(CNC5CC5)c4)n[nH]3)cc2)c(O)c1	0.461 µM (active)
O=C(Nc1cc2cc[nH]c2cn1)c1ccccc1	9.2 µM (active)
